koff values by entry
- system name: T1, human W3785-hProl.ECD.His (Human-TNFR2-His) protein (human, UniProt P20333 23-257)
- T1 construct: extracellular domain; not shown: His tag
- T1 sequence (looked up): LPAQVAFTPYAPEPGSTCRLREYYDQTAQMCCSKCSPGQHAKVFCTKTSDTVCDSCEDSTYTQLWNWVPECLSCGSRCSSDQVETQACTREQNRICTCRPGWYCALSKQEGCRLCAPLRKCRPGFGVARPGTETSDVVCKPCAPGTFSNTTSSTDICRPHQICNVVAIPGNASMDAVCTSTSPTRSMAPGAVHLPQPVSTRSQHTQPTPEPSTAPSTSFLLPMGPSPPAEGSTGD
- measurement description: BLI (Octet Red96e), antibody on AHC sensor, Human-TNFR2-His in solution, multiple concentrations
Write down the value, and be sure its unit follows.

Name the recorded koff for Antibody 25 (antibody, V domains shown, captured on AHC sensors) VH: EVQLVQSGAEVKKPGATVKISCKVSGYSITDYLLHWVQQAPGKGLEWMGWIDPEEGKTKYGQKFQSRVTITADTSTDTAYMELSSLRSEDTAVYYCAAQSGTGTMDAWGQGTLVTVSS VL: DIVMTQSPATLSVSPGERATLSCKASQNVGSNVDWYQQKPGQSPRVLIYKASIRYTGIPARFSGSGSGTEFTLTISILQSEDFAVYFCMQSKSYPITFGQGTKLEIK .
0.00193 s⁻¹

Also Antibody 24 (antibody, V domains shown, captured on AHC sensors) VH: EVQLVQSGAEVKKPGATVKISCKVSGYSITDYLLHWVQQAPGKGLEWMGWIDPEDAKTKYGQKFQSRVTITADTSTDTAYMELSSLRSEDTAVYYCAANSGTGTMDAWGQGTLVTVSS VL: DIVMTQSPATLSVSPGERATLSCKASQNVGSNVDWYQQKPGQSPRVLIYKASIRYTGIPARFSGSGSGTEFTLTISILQSEDFAVYFCMQSKSYPITFGQGTKLEIK , if possible.
0.000109 s⁻¹

Also Antibody 26 (antibody, V domains shown, captured on AHC sensors) VH: EVQLVQSGAEVKKPGATVKISCKVSGYSITDYLLHWVQQAPGKGLEWMGWIDPEEGKTKYGQKFQSRVTITADTSTDTAYMELSSLRSEDTAVYYCAANSATGTMDAWGQGTLVTVSS VL: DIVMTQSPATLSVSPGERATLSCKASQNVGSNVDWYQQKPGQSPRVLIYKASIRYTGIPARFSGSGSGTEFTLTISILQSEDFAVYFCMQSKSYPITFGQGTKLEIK , if possible.
1.41e-05 s⁻¹
